# TARGET_ENTITY: human TLR9 (Homo sapiens)
# Sequence (Q9NR96 26-1032): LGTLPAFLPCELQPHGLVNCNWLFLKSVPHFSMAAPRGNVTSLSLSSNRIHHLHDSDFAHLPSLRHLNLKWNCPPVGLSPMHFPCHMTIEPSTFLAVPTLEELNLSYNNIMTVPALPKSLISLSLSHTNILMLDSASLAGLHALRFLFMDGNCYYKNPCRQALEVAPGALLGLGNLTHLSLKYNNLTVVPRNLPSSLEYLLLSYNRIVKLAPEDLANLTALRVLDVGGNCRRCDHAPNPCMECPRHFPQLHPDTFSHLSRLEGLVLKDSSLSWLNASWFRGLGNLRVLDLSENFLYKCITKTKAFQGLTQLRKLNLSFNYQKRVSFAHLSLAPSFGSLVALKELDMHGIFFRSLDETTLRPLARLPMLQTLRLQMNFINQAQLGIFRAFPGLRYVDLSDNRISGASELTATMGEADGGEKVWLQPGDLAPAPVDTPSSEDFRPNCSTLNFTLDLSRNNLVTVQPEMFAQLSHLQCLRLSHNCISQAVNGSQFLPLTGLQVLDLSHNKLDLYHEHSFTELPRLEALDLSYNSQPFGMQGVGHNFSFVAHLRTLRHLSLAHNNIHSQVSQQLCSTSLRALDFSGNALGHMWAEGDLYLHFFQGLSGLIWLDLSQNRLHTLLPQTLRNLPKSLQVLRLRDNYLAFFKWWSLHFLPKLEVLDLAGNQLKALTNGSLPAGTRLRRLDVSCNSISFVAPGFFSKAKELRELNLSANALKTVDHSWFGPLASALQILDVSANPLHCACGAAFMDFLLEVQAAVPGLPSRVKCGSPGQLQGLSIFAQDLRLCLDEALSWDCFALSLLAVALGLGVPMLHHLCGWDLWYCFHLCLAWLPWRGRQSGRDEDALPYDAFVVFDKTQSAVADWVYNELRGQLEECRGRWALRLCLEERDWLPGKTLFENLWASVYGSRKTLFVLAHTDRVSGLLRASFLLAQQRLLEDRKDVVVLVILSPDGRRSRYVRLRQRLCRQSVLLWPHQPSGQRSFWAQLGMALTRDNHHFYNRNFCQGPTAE
# TEST_SUMMARY: HEK293-Blue-hTLR-9 cells assay
# SETUP_CONDITIONS: HEK293-Blue-hTLR9 cells, ODN2006 stimulation, 20 hrs, SEAP reporter; read-out: HEK/hTLR9 IC50
OBSERVABLE: IC50 (nM)

Look over these answered cases.
C[C@@H]1CN(c2ccc(C#N)c3ncccc23)C[C@@H]2c3ccc(N4CC(N)C4)cc3CN12 = 104
C[C@@H]1CN(c2ccc(C#N)c3ncccc23)C[C@@H]2c3ccc(N4CCC(C)(N)CC4)cc3CN12 = 139
CO[C@H]1CNC[C@H]1Nc1ccc2c(c1)CN1[C@H](C)CN(c3ccc(C#N)c4ncccc34)C[C@H]21 = 93
C[C@@H]1CN(c2ccc(C#N)c3ncccc23)C[C@@H]2c3ccc(N4CCNCC(O)C4)cc3CN12 (some centres unmarked) = 83.2

I: C[C@@H]1CN(c2ccc(C#N)c3ncccc23)C[C@@H]2c3ccc(N4CCOC5(CNC5)C4)cc3CN12
II: C[C@@H]1CN(c2ccc(C#N)c3ncccc23)C[C@@H]2c3cc(F)c(N4C[C@H](N)[C@@](C)(O)C4)cc3CN12
Between these two entries, I and II , state which has the higher IC50. Refer to your chosen item by its label in the answer. II
